Sourced from patent US20220112288A1

- target: T1, human CD4 on the surface of SKW3 cells or human PBMCs (human, UniProt P01730 26-458)
- T1 construct: whole, on cells; SKW3 CD4 knockout cells served as the negative cell line; also called hCD4; SKW3 WT
- assay: FACS binning on SKW3 cells; competitor OKT4a, anti-human A647 secondary (its signal read); background 5000, max binding 35000
observable: OKT4a anti-hu A647 Secondary signal
Answers are plain numbers.

Recorded OKT4a anti-hu A647 Secondary signal, per entry:
Record 75110_09N20A (antibody, V domains shown, Tested here as non-clonal hybridoma supernatant from AlivaMab Mouse Kappa mice (detected with anti-mouse Fc and anti-human kappa)) VH: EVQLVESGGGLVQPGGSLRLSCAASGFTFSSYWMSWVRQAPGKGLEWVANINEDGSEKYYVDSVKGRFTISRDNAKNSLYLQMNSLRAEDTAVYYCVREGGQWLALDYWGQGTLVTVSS VL: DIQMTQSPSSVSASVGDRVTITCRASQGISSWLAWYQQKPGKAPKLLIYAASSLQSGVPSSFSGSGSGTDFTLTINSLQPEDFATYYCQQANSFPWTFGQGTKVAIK , field OKT4a anti-hu A647 Secondary signal: 46600

binder 75110_12H17A (antibody, V domains shown, Tested here as non-clonal hybridoma supernatant from AlivaMab Mouse Kappa mice (detected with anti-mouse Fc and anti-human kappa)) VH: EVQLVESGGGLVQPGGSLRLSCAASGFTFSDYWMSWVRQAPGKGLEWVANIKEDGNEKYYVDSVKGRFTISRDNAKNSLFLQMNSLRAEDTAVYYCAREGGQWLALDYWGQGALVTVSS VL: DIQMTQSPSSVSASVGDRVTITCRASQGISSWLAWYQQKPGKAPKFLISGASSLQSGVPSRFTGSGSGTDFTLTISSLQPEDFATYYCQQANSFPWTFGQGTKVEIK , OKT4a anti-hu A647 Secondary signal observed: 42000

Parameters: items (list). Returns: OKT4a anti-hu A647 Secondary signal for each item.
1. 75110_01J09A (antibody, V domains shown, Tested here as non-clonal hybridoma supernatant from AlivaMab Mouse Kappa mice (detected with anti-mouse Fc and anti-human kappa)) VH: EVQLVESGGGLVQPGGSLRLSCVASGFTFSSYWMSWVRQAPGKGLEWVANTKEDGSDKYYVDSVKGRFTICRDNAKNSLYLQMNSLRAEDTAVYYCAREGGQWLALDYWGQGTLVTVSS VL: DIQMTQSPSSVSASVGDRVTINCRASQGISSWLAWYQQKPGKAPNLLIFGASSLQSGVPSRFSGSGFGTDFSLTITTLQPEDFATYHCQQANSFPWTFGQGTKVEIK
2. 75110_09G15A (antibody, V domains shown, Tested here as non-clonal hybridoma supernatant from AlivaMab Mouse Kappa mice (detected with anti-mouse Fc and anti-human kappa)) VH: EVQLVESGGGLVQPGGSLRLSCAASGFTFSDYWMSWVRQAPGKGLEWVANINQDGSEKYSVDSVKGRFTISRDNAKNSLYLQMNSLRAEDTAIFYCAREGGQWLALDYWGQGTLVTVSS VL: DIQMTQSPSSVSASVGDRVTITCRASQGISSWLAWYQQKPGKAPKLLIYGASSLQSGVPSRFSGSGSGTDFTLTINSLQPEDFTTYYCQQANIFPWTFGQGTKVEIK
3. 75110_11D03A (antibody, V domains shown, Tested here as non-clonal hybridoma supernatant from AlivaMab Mouse Kappa mice (detected with anti-mouse Fc and anti-human kappa)) VH: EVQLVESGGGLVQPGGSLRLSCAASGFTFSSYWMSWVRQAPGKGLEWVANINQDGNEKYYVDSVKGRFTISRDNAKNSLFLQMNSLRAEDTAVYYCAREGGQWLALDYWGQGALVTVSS VL: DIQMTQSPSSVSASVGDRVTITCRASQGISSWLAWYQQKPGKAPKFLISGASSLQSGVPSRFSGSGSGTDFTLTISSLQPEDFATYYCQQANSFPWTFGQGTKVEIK
4. 75110_03C01A (antibody, V domains shown, Tested here as non-clonal hybridoma supernatant from AlivaMab Mouse Kappa mice (detected with anti-mouse Fc and anti-human kappa)) VH: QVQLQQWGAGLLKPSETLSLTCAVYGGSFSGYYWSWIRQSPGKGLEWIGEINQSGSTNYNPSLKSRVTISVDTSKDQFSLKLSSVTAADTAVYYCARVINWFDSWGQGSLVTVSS VL: DIQMTQSPSSVSASVGDRVTITCRASQGISSWLAWYQQKPGNAPKLLIYDASSFQSGVPSRFSGSGSGTDFTLTISSLQTEDFATYYCQQANSFPYTFGQGTKLEIK
5. 75110_04K10A (antibody, V domains shown, Tested here as non-clonal hybridoma supernatant from AlivaMab Mouse Kappa mice (detected with anti-mouse Fc and anti-human kappa)) VH: EVQLVESGGGLVQPGGSLRLSCAASGFTFSSYWMSWVRQAPGKGLEWVANINQDGSEKYYVDSVKGRFTISRDNAKNSLYLQLNSLRAEDTAMYYCAREGGQWLSLDYWGQGTLVTVSS VL: DIQMTQSPSSVSASVGDRVTITCRASQGISSWLAWYQQKPGKAPKVLIYGVSSFQSGVPSRFSGSGSGTDFILTISSLQPEDFATYYCQQANSFPWTFGQGTKVEIK
6. 75110_12H19A (antibody, V domains shown, Tested here as non-clonal hybridoma supernatant from AlivaMab Mouse Kappa mice (detected with anti-mouse Fc and anti-human kappa)) VH: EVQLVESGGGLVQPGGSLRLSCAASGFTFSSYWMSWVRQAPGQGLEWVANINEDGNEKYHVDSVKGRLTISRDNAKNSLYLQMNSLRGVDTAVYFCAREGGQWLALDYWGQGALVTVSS VL: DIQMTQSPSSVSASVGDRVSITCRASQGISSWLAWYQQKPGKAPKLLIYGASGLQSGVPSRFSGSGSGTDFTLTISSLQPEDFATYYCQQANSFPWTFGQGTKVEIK
7. 75110_04B08A (antibody, V domains shown, Tested here as non-clonal hybridoma supernatant from AlivaMab Mouse Kappa mice (detected with anti-mouse Fc and anti-human kappa)) VH: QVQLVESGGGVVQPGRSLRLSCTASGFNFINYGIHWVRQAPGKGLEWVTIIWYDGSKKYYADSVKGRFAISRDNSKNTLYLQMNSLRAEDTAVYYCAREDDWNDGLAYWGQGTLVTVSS VL: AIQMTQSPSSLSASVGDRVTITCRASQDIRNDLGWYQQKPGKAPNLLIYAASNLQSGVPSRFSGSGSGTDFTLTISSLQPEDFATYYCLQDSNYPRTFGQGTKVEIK

Given back:
1. 43700
2. 44600
3. 43700
4. 6980
5. 43100
6. 34400
7. 43400

The value of OKT4a anti-hu A647 Secondary signal measured for the binder 75110_02E08A (antibody, V domains shown, Tested here as non-clonal hybridoma supernatant from AlivaMab Mouse Kappa mice (detected with anti-mouse Fc and anti-human kappa)) VH: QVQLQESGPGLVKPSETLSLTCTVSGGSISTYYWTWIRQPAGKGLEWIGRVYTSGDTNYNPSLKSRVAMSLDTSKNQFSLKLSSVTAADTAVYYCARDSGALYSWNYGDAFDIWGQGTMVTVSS VL: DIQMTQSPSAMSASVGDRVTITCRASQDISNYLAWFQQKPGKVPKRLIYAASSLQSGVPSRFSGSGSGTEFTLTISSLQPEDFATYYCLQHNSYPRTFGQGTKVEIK turned out to be 41500
